Biological target: T1, B7-H3 on CHO-K1 cells stably transfected with B7-H3 (GenScript #M00536) (UniProt Q5ZPR3 29-534, limits assumed)
T1 sequence (looked up): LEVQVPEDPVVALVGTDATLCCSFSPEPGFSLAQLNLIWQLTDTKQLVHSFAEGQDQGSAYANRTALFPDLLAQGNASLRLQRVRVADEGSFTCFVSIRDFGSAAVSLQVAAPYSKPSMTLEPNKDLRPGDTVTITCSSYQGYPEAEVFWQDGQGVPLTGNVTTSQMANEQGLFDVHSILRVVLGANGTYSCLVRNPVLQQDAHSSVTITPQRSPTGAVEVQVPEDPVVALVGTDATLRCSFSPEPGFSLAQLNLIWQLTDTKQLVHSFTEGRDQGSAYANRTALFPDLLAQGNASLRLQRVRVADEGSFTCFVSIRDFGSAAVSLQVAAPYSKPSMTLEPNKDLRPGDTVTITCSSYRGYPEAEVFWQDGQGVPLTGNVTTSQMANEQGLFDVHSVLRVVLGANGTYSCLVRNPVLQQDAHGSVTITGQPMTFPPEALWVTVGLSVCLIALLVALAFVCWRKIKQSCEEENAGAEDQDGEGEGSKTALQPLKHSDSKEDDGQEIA
Assay: cell-based or functional assay
readout_type: ADCC reporter assay, Max RLU, CHOK1/B7-H3 cells (RLU)

| binder | value_observed |
| --- | --- |
| 40511p1.2.G10 IgG (antibody, V domains shown) VH: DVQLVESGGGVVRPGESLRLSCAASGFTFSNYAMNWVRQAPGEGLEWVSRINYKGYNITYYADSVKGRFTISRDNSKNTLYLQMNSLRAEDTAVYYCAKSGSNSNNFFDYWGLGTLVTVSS VL: EIVLTQSPGTLSLSPGERATLSCRASQTVGSKLAWYQQKPGQAPRLLIYGASTRATDIPDRFSGSGSGTEFTLTISSLQSEDFAVYYCQQYINWPPLSFGGGTKVEIK | 893000 |
| 40633p1.2.E1 IgG (antibody, V domains shown) VH: EVQLLESGRGLVQPGGSLRLSCAASGFTVSYYGMSWVRQAPGKGLEWVSVIKQDGSEEYYADSVKGRFTISRDNSKNTLYLQMNSLRAEDTAVYYCARHWNDYSNGMNVWGQGTTVTVSS VL: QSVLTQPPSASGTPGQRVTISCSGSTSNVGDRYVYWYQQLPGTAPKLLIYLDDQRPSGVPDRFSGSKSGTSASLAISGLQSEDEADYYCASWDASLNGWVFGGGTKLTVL | 725000 |
| 40633p1.1.A7 IgG (antibody, V domains shown) VH: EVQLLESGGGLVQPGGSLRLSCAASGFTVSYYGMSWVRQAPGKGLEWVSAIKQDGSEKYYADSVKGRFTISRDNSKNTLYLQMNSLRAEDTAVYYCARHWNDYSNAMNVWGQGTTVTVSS VL: QSVLTQPPSASGTPGQRVTISCSGSTSNIGRESVYWYQQLPGTAPKLLIYTIDQRPSGVPDRFSGSKSGTSASLAISGLQSEDEAVYYCASWDASLNGWVFGGGTKLTVL | 634000 |
